Entry source: patent US20240239894A1

Listed binders paired with reported EC50
molecular target: T1, Cyno B7-H4-Fc (Cyno B7H4 ECD, FcTM_6His) (cynomolgus monkey); assay: HTRF binding, human IgG1
T1 construct: extracellular domain; also called cynomolgus B7-H4-Fc
Numeric answer only, unit nM assumed.

These solved cases illustrate the format of a correct answer.
1) ZY0EPQ-E02 human IgG1 (antibody, V domains shown) VH: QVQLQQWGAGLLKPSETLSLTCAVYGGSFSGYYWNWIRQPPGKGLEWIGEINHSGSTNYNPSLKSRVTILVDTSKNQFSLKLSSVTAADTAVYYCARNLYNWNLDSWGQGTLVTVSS VL: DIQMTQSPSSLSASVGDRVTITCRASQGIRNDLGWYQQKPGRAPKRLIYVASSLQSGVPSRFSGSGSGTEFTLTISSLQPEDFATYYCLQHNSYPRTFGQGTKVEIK    0.33
2) ZY0EO5-E07 human IgG1 (antibody, V domains shown, also called ZY0E05-E07; E05-E07) VH: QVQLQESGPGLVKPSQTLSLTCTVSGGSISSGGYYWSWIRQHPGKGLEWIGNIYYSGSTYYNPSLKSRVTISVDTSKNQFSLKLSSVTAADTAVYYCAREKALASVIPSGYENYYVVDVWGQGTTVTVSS VL: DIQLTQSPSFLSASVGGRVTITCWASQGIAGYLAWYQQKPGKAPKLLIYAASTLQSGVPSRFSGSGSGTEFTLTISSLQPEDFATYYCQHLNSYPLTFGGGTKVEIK    0.18
3) ZY0EQD-E02 human IgG1 (antibody, V domains shown) VH: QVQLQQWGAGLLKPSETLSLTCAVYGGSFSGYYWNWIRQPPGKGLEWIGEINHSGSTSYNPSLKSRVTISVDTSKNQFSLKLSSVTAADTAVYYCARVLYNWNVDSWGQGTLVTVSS VL: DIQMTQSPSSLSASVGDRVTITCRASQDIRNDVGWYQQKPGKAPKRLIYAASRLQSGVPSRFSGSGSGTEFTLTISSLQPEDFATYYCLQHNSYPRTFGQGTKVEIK    0.28

// next item, EC50 requested
Please fill in: EC50 reported for ZY0EP0-C07 human IgG1 (antibody, V domains shown, also called ZY0EPO-C07) VH: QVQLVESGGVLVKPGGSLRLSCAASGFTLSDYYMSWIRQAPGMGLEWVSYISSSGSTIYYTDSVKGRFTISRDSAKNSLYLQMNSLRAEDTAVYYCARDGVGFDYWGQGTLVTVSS VL: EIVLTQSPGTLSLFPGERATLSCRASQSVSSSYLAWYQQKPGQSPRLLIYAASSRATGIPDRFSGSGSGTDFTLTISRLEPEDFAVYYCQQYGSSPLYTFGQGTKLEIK = 0.33
